readout-type: Kd (nM)
Give the value, in units of nM, as a plain number.

Problem: What Kd appears in the records for this compound with CSF1R (human) (UniProt P07333)? COc1cc(N2CCN(C)CC2)ccc1Nc1ncc2c(n1)N(C)c1ccccc1C(=O)N2
Sequence (P07333 whole entry, looked up): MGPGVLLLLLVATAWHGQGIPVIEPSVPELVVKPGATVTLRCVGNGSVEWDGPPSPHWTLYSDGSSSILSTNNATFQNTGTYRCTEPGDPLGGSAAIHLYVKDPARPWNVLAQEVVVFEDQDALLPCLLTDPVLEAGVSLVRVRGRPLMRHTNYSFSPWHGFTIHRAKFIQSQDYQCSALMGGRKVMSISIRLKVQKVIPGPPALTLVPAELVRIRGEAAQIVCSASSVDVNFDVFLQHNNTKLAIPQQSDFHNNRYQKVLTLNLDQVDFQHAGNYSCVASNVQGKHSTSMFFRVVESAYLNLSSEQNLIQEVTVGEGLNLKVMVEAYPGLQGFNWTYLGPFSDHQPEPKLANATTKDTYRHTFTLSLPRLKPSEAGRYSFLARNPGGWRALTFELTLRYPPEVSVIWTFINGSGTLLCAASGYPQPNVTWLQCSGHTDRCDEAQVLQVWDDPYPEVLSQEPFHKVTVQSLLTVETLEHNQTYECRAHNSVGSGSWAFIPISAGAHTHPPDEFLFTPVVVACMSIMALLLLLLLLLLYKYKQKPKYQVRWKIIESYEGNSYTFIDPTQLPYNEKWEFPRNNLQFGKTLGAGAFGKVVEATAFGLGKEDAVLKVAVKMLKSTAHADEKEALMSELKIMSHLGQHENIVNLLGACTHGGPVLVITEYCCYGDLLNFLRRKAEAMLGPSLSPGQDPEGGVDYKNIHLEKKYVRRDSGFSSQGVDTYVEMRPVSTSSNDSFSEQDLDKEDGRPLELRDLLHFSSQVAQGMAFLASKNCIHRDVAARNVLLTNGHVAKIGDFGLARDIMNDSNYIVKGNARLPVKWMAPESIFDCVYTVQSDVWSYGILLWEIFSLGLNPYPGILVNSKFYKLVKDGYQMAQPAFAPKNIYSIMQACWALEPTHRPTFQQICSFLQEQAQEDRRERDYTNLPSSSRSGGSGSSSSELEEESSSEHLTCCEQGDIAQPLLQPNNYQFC
Result: 330

* * *

target: DCLK3 (human) (UniProt Q9C098); assay: KINOMEscan competition binding; settings: compound 10.0 µM
Sequence (Q9C098 whole entry, looked up): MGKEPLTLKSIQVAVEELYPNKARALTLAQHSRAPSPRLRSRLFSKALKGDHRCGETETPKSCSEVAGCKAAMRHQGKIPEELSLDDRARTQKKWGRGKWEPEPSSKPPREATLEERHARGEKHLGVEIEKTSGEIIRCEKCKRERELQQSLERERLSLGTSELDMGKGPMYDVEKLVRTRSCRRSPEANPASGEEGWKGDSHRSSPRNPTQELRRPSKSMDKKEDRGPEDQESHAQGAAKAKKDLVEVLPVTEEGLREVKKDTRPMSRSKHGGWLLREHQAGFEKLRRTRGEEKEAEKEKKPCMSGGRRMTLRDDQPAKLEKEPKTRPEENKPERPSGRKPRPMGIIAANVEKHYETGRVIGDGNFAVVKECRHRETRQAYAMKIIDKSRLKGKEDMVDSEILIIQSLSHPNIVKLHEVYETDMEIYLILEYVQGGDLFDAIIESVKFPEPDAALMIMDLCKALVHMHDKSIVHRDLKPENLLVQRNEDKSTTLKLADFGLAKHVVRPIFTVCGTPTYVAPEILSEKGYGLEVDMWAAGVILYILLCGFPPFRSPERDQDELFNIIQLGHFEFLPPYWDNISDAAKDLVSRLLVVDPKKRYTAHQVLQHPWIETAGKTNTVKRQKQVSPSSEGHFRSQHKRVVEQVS
Met if kinase still bound, per cent of control is below 20%. Not met if not; exact matches included in Not met.

Problem: # strict comparison: is reported kinase still bound, per cent of control < 20%? input = COc1cc(N2CCN(C)CC2)ccc1Nc1ncc2c(n1)N(C)c1ccccc1C(=O)N2C
Result: Met

Problem: # strict comparison: is reported kinase still bound, per cent of control < 20%? input = N=C1NC(=O)/C(=C/c2ccc(-c3ccccc3O)o2)S1
Result: Met

Problem: # strict comparison: is reported kinase still bound, per cent of control < 20%? input = COc1cc(N2CCN(C)CC2)ccc1Nc1ncc2c(n1)N(C)c1sccc1C(=O)N2C
Result: Met

Problem: # strict comparison: is reported kinase still bound, per cent of control < 20%? input = COc1cc(N2CCN(C)CC2)ccc1Nc1ncc2c(n1)N(C(C)C)c1ccccc1C(=O)N2
Result: Met

Problem: # strict comparison: is reported kinase still bound, per cent of control < 20%? input = N=C1NC(=O)/C(=C/c2ccc(-c3ccc(F)cc3O)o2)S1
Result: Met

Problem: # strict comparison: is reported kinase still bound, per cent of control < 20%? input = N=C1NC(=O)/C(=C/c2ccc(-c3cncc4ccccc34)o2)S1
Result: Not met

Problem: # strict comparison: is reported kinase still bound, per cent of control < 20%? input = CS(=O)(=O)Nc1ccc(-c2ncc(/C=C3\SC(=N)NC3=O)s2)cc1
Result: Not met

Problem: # strict comparison: is reported kinase still bound, per cent of control < 20%? input = CN1CCN(c2ccc(C(=O)Nc3ncc4c(n3)N(C)c3ccccc3C(=O)N4C)cc2)CC1
Result: Not met

Problem: # strict comparison: is reported kinase still bound, per cent of control < 20%? input = CS(=O)(=O)Nc1ccc(-c2cncc(/C=C3\SC(=N)NC3=O)c2)cc1
Result: Met

Problem: # strict comparison: is reported kinase still bound, per cent of control < 20%? input = N=C1NC(=O)/C(=C/c2c[nH]c(=O)c(-c3ccc(N4CCNCC4)nc3)c2)S1
Result: Met

Problem: # strict comparison: is reported kinase still bound, per cent of control < 20%? input = CN1C(=O)c2ccccc2N(C)c2nc(Nc3ccc(N4CCC(O)CC4)cc3)ncc21
Result: Not met

Problem: # strict comparison: is reported kinase still bound, per cent of control < 20%? input = COc1cc(N2CCN(C)CC2)ccc1Nc1ncc2c(n1)N(C1CCCC1)C(C)CC(=O)N2 (configuration not stated)
Result: Met

* * *

target: MAPK8 (human); assay: KINOMEscan competition binding; settings: compound 10.0 µM
readout-type: kinase still bound, per cent of control (%)
Give the value, in units of %, as a plain number.

Problem: What kinase still bound, per cent of control appears in the records for this molecule with MAPK8 (human)? COc1cc(N2CCN(C)CC2)ccc1Nc1ncc2c(n1)Nc1ccccc1NC2=O
Result: 73

Problem: What kinase still bound, per cent of control appears in the records for this molecule with MAPK8 (human)? COc1cc(N2CCN(C)CC2)ccc1Nc1ncc2c(n1)N(C)c1ccccc1N(C)C2=O
Result: 86

Problem: What kinase still bound, per cent of control appears in the records for this molecule with MAPK8 (human)? NS(=O)(=O)c1ccc(-c2ccc(/C=C3\SC(=S)N(CC(=O)O)C3=O)o2)cc1
Result: 22

Problem: What kinase still bound, per cent of control appears in the records for this molecule with MAPK8 (human)? N=C1NC(=O)/C(=C/c2ccc(-c3cncc4ccccc34)o2)S1
Result: 20

Problem: What kinase still bound, per cent of control appears in the records for this molecule with MAPK8 (human)? CN1C(=O)[C@H]2CCC[C@H]2N(C2CCCC2)c2nc(Nc3ccc(C(N)=O)cc3)ncc21
Result: 29

Problem: What kinase still bound, per cent of control appears in the records for this molecule with MAPK8 (human)? CSC1=NC(=O)/C(=C/c2ccc(-c3ccc(S(N)(=O)=O)cc3)o2)S1
Result: 31

Problem: What kinase still bound, per cent of control appears in the records for this molecule with MAPK8 (human)? COc1cc(N2CCN(C)CC2)ccc1Nc1ncc2c(n1)N(C)c1sccc1C(=O)N2C
Result: 86

Problem: What kinase still bound, per cent of control appears in the records for this molecule with MAPK8 (human)? N=C1NC(=O)/C(=C/c2c[nH]c(=O)c(-c3ccc4cc[nH]c4c3)c2)S1
Result: 28

Problem: What kinase still bound, per cent of control appears in the records for this molecule with MAPK8 (human)? Cc1cn(-c2cc(NC(=O)c3cccc4cc(-c5ccc(/C=C6\SC(=N)NC6=O)o5)ccc34)cc(C(F)(F)F)c2)cn1
Result: 14

Problem: What kinase still bound, per cent of control appears in the records for this molecule with MAPK8 (human)? CN1C(=O)c2ccccc2N(C)c2nc(NS(=O)(=O)c3ccc(N)cc3)ncc21
Result: 100

Problem: What kinase still bound, per cent of control appears in the records for this molecule with MAPK8 (human)? O=C1NC(=S)S/C1=C\c1ccc(-c2cncc3ccccc23)o1
Result: 7

Problem: What kinase still bound, per cent of control appears in the records for this molecule with MAPK8 (human)? N=C1NC(=O)/C(=C/c2ccc(-c3csc4ccccc34)o2)S1
Result: 34

Problem: What kinase still bound, per cent of control appears in the records for this molecule with MAPK8 (human)? N=C1NC(=O)/C(=C/c2ccc(-c3cccc4cc[nH]c34)o2)S1
Result: 14

Problem: What kinase still bound, per cent of control appears in the records for this molecule with MAPK8 (human)? O=C1NC(=O)/C(=C/c2ccc(-c3ccc4c(C(=O)Nc5cccc(C(F)(F)F)c5)cccc4c3)o2)S1
Result: 30

Problem: What kinase still bound, per cent of control appears in the records for this molecule with MAPK8 (human)? CN1C(=O)c2ccccc2N(C)c2nc(Nc3ccc(N4CCC(O)CC4)cc3)ncc21
Result: 100

Problem: What kinase still bound, per cent of control appears in the records for this molecule with MAPK8 (human)? CCN1CCN(Cc2cc(NC(=O)c3cccc4cc(-c5ccc(/C=C6\SC(=O)NC6=O)o5)ccc34)cc(C(F)(F)F)c2)CC1
Result: 32

Problem: What kinase still bound, per cent of control appears in the records for this molecule with MAPK8 (human)? O=C1NC(=S)S/C1=C\c1ccc(-c2cccc3ccccc23)o1
Result: 30

Problem: What kinase still bound, per cent of control appears in the records for this molecule with MAPK8 (human)? CN(C)C1=NC(=O)/C(=C/c2ccc(-c3ccc(S(N)(=O)=O)cc3)o2)S1
Result: 33

Problem: What kinase still bound, per cent of control appears in the records for this molecule with MAPK8 (human)? O=C1NC(=O)/C(=C/c2c[nH]c(=O)c(-c3ccc(N4CCNCC4)nc3)c2)S1
Result: 60

Problem: What kinase still bound, per cent of control appears in the records for this molecule with MAPK8 (human)? CN1CCN(c2ccc(C(=O)Nc3ncc4c(n3)N(C)c3ccccc3C(=O)N4C)cc2)CC1
Result: 100

Problem: What kinase still bound, per cent of control appears in the records for this molecule with MAPK8 (human)? COc1cc(N2CCC(O)CC2)ccc1Nc1ncc2c(n1)N1CCc3cccc(c31)C(=O)N2C
Result: 68

* * *

Record form. Attribute: kinase still bound, per cent of control. Fill in for each entry.
target: UniProt:Q12851; test: KINOMEscan competition binding; conditions: compound 10.0 µM
Sequence (Q12851 whole entry, looked up): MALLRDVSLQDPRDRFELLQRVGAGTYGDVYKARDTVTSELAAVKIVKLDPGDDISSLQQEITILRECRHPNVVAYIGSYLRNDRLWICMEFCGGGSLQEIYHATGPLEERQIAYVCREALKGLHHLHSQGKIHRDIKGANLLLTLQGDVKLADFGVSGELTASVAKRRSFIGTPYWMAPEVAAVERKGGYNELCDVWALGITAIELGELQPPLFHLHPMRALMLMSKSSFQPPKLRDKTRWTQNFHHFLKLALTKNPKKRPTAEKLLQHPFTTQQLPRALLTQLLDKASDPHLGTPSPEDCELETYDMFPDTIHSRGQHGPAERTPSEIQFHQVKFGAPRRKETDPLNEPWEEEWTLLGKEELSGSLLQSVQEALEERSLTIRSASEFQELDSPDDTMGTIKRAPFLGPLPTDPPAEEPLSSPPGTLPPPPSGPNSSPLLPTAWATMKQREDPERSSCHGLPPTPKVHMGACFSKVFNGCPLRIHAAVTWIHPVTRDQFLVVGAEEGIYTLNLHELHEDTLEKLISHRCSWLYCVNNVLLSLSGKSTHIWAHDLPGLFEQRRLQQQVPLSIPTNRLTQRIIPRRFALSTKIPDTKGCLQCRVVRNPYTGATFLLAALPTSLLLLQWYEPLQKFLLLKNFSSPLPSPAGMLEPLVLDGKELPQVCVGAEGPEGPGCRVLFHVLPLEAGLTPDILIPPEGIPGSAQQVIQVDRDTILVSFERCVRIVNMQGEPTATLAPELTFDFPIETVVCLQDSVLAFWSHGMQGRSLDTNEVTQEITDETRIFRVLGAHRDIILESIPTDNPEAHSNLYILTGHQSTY
Give the value, in units of %, as a plain number.

Problem: Fill in the blank: the reported kinase still bound, per cent of control of COc1cc(N2CCN(C)CC2)ccc1Nc1ncc2c(n1)Nc1ccccc1NC2=O is ____.
Result: 6.3

Problem: Fill in the blank: the reported kinase still bound, per cent of control of N=C1NC(=O)/C(=C/c2c[nH]c(=O)c(-c3ccc(N4CCNCC4)nc3)c2)S1 is ____.
Result: 32

Problem: Fill in the blank: the reported kinase still bound, per cent of control of Nc1cccc(-c2cc(/C=C3\SC(=O)NC3=O)c[nH]c2=O)c1 is ____.
Result: 30

Problem: Fill in the blank: the reported kinase still bound, per cent of control of N=C1NC(=O)/C(=C/c2c[nH]c(=O)c(-c3ccc4cc[nH]c4c3)c2)S1 is ____.
Result: 15

Problem: Fill in the blank: the reported kinase still bound, per cent of control of COc1cc(N2CCN(C)CC2)ccc1Nc1ncc2c(n1)N(C)c1sccc1C(=O)N2C is ____.
Result: 96

Problem: Fill in the blank: the reported kinase still bound, per cent of control of CN1C(=O)[C@H]2CCC[C@H]2N(C2CCCC2)c2nc(Nc3ccc4ncccc4c3)ncc21 is ____.
Result: 23
